Listed below: pKd values for each entry.
- test-system: full length N-terminally FLAG-tagged PARP1 (Homo sapiens, UniProt P09874)
- Sequence (P09874 whole entry): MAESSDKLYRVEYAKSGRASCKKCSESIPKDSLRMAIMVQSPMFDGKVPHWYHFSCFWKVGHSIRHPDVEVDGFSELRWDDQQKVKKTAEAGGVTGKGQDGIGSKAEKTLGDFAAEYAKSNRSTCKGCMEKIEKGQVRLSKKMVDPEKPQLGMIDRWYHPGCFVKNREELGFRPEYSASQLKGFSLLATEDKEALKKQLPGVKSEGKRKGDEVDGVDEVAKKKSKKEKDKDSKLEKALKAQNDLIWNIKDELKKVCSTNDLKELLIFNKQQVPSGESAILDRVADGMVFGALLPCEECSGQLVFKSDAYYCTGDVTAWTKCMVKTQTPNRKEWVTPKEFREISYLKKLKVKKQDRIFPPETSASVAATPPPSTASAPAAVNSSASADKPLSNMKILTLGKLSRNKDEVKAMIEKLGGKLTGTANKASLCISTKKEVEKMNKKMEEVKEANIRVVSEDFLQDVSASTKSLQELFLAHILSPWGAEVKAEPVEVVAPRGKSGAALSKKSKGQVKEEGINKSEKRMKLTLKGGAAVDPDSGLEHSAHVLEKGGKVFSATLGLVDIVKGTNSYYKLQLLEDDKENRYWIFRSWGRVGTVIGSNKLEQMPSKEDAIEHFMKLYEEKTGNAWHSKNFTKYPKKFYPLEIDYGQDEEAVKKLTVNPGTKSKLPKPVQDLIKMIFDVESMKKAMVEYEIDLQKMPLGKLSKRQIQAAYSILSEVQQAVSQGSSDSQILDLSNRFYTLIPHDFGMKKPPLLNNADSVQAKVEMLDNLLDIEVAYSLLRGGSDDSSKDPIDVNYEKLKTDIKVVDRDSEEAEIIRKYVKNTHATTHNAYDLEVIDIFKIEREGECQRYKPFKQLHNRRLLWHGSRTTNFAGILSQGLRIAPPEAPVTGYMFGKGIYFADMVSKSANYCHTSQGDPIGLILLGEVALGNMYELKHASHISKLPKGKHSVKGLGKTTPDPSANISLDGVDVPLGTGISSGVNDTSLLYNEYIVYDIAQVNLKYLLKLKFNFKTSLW
- assay-overview: PARP1 probe displacement HTRF assay
- measurement-parameters: read-out: PARP1 HTRF; binned Kd, PARP1 probe displacement HTRF
pKd: −log10 of the molar value.

Recorded pKd, per entry:
molecule	pKd
CNC(=O)c1ccc(N2CCC(N3CCC(c4cc5ncccc5c(=O)[nH]4)C3)CC2)cn1 (single isomer, unassigned) [Compound 218b]	> 8.00
CNC(=O)c1ccc(N2CCC(CN3CCCC(c4nc5ccccc5c(=O)[nH]4)C3)CC2)cn1 (single isomer, unassigned) [Compound 9a]	7.00 to 8.00
CNC(=O)c1ccc(N2CCC(N3CCC(c4ccc(C5CC5)c(=O)[nH]4)C3)CC2)cn1 (racemic)	> 8.00
CNC(=O)c1ccc(N2CCC(N3CCC(c4cc5c(F)ccc(F)c5c(=O)[nH]4)C3)CC2)cn1 (single isomer, unassigned) [Compound 180b]	> 8.00
CNC(=O)c1ccc(N2CCC(N3CCC(c4nc5ccccc5c(=O)[nH]4)C3)CC2)c(C(F)F)n1 (single isomer, unassigned) [Compound 158a]	> 8.00

Value of measured pKd for the entry CCc1ccc(C2CCN(C3CCN(c4ccc(C(=O)NC)nc4)CC3)C2)[nH]c1=O (single isomer, unassigned) [Compound 72a] : 7.00 to 8.00

* * *

Entries and their pIC50 values follow.
- test-system: UniProt:P09874
- assay-overview: PARP1 biochemical DELFIA assay (auto-PARylation)
- Design: recombinant full length human N-terminally FLAG-tagged PARP1
- measurement-parameters: binned IC50, PARP1 biochemical DELFIA assay
pIC50: −log10 of the molar value.

Short answer for CNC(=O)c1ccc(N2CCC(N3CCC(c4cc5c(F)ccc(F)c5c(=O)[nH]4)C3)CC2)cn1 (single isomer, unassigned) [Compound 180a] : pIC50 was > 8.00

For reference, reported pIC50 for CNC(=O)c1ccc(N2CCC(N3CCCC(c4ncc(C(F)(F)F)c(=O)[nH]4)C3)CC2)cn1 (single isomer, unassigned) [Compound 73a] stands at 6.00 to 7.00

Lab book: pIC50 of `CNC(=O)c1ccc(OCCN2CCC(c3nc4ccccc4c(=O)[nH]3)CC2)cn1` noted as > 8.00

// sample CNC(=O)c1ccc(N2CCC(N3CCCC(c4nc5ccncc5c(=O)[nH]4)C3)CC2)cn1 (single isomer, unassigned) [Compound 93a] , its pIC50 was 6.00 to 7.00

response.value for CNC(=O)c1ccc(N2CCC(N3CCC(c4cc5cccc(F)c5c(=O)[nH]4)C3)CC2)c(Cl)n1 (single isomer, unassigned) [Compound 183b] (field: pIC50) = > 8.00

Looking up CNC(=O)c1ccc(N2CCC(N3CCC(c4[nH]c(=O)c5ccccc5c4Cl)C3)CC2)cn1 (single isomer, unassigned) [Compound 219a] , I see its pIC50 listed as > 8.00

Entry under test: O=C(NCCF)c1ccc(N2CCC(N3CCC(c4nc5ccccc5c(=O)[nH]4)C3)CC2)cn1 (single isomer, unassigned) [Compound 117a] . Its pIC50 was 7.00 to 8.00

For CNC(=O)c1ccc(N2CCC(N3CCCC(c4nc5sc6c(c5c(=O)[nH]4)CCC6)C3)CC2)cn1 (single isomer, unassigned) [Compound 185a] the compound record lists pIC50 as > 8.00

Measured pIC50, CNC(=O)c1ccc(N2CCC(N3CCC(c4nc5cccc(F)c5c(=O)[nH]4)C3)CC2)cn1 (single isomer, unassigned) [Compound 101b] : > 8.00

Form: compound = CNC(=O)c1ccc(N2CCC(CN3CCCC(c4nc5ccccc5c(=O)[nH]4)C3)CC2)cn1 (single isomer, unassigned) [Compound 9b] ; pIC50 = 7.00 to 8.00

What the record says about CNC(=O)c1ccc(N2CCC(N3CCC(c4cc5c(F)cccc5c(=O)[nH]4)C3)CC2)cn1 (single isomer, unassigned) [Compound 172a] : pIC50 is > 8.00

* * *

- test-system: N-terminally FLAG-tagged PARP2 (amino acids 1-583) (Homo sapiens, UniProt Q9UGN5)
- Construct: N-terminally FLAG-tagged PARP2 (amino acids 1-583)
- Sequence (Q9UGN5 whole entry, the tested form may be a part): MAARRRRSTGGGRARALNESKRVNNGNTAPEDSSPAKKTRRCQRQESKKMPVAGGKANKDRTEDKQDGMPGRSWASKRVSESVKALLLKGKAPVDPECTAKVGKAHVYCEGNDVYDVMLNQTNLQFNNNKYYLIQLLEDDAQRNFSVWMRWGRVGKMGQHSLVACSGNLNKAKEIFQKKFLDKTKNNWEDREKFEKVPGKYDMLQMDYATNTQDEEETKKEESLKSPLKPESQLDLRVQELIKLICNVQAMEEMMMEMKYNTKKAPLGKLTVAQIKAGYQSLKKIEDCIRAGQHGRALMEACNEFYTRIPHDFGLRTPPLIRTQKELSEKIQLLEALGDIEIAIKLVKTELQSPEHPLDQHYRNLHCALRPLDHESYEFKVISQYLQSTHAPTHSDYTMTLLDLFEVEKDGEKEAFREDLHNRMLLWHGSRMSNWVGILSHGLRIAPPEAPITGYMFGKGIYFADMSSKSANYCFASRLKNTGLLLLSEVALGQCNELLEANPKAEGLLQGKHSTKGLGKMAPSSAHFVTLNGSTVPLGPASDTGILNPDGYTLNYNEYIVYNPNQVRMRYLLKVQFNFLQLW
- assay-overview: PARP2 probe displacement HTRF assay
- Format: binding
- measurement-parameters: binned Kd, PARP2 probe displacement HTRF
Overview of recorded Kd for various compounds

compound	Kd
CNC(=O)c1ccc(N2CCC(N3CCC(c4cc5ccccc5c(=O)[nH]4)C3)CC2)cn1 (single isomer, unassigned) [Compound 91a]	0.1 to 1 µM
CNC(=O)c1ccc(N2CCC(N3CCC(c4nc5ccccc5c(=O)[nH]4)C3)CC2)cn1 (single isomer, unassigned) [Compound 10b]	0.1 to 1 µM
NC(=O)c1ccc(N2CCC(N3CCC(c4nc5ccccc5c(=O)[nH]4)C3)CC2)cn1 (single isomer, unassigned) [Compound 123b]	1 to 10 µM
CNC(=O)c1ccc(N2CCC(N3CCCC(c4nc5ccccc5c(=O)[nH]4)C3)CC2)c(C)n1 (single isomer, unassigned) [Compound 131b]	> 10 µM
CNC(=O)c1ccc(N2CCC(N3CCCC(F)(c4nc5ccccc5c(=O)[nH]4)C3)CC2)cn1 (single isomer, unassigned) [Compound 71a]	> 10 µM

Notebook: O=C(NCC(F)(F)F)c1ccc(N2CCC(N3CCCC(c4nc5ccccc5c(=O)[nH]4)C3)CC2)cn1 (single isomer, unassigned) [Compound 115a] , Kd read as 1 to 10 µM

* * *

- test-system: N-terminally FLAG-tagged PARP2 (amino acids 1-583) (Homo sapiens)
- Construct: N-terminally FLAG-tagged PARP2 (amino acids 1-583)
- assay-overview: PARP2 probe displacement HTRF assay
- Assay type: binding
- measurement-parameters: binned Kd, probe displacement HTRF
result-type: Kd

Check out these entries, answers already filled in.
compound	Kd
O=c1[nH]c(C2CCN(C3CCN(c4ccc(C5=NCCN5)cc4)CC3)C2)nc2ccccc12 (racemic) [Compound 307rac]	0.1 to 1 µM
CC(=O)Nc1ccc(N2CCC(N3CCC(c4nc5ccccc5c(=O)[nH]4)C3)CC2)cn1 (single isomer, unassigned) [Compound 262b]	1 to 10 µM

For reference, reported Kd for CCc1ccc(C2CCN(C3CCN(c4ccc(C(=O)NCC(F)F)nc4)CC3)C2)[nH]c1=O (single isomer, unassigned) [Compound 354b] stands at 0.1 to 1 µM

The compound listed as CNC(=O)c1cc(N2CCC(N3CCC(c4cc5ccccc5c(=O)[nH]4)C3)CC2)cs1 (racemic) [Compound 296rac] shows Kd equal to 0.1 to 1 µM

Sample CS(=O)(=O)Nc1ccc(N2CCC(N3CCC(c4cc5ccccc5c(=O)[nH]4)C3)CC2)cc1 (single isomer, unassigned) [Compound 251a] ; Kd observed: 1 to 10 µM

Reported Kd for CNC(=O)c1ccc(N2CCC(N3CCC(c4[nH]c(=O)c5cc(F)ccc5c4F)C3)CC2)cn1 (single isomer, unassigned) [Compound 370a] was 0.1 to 1 µM

* * *

- test-system: N-terminally FLAG-tagged PARP2 (amino acids 1-583) (Homo sapiens)
- Construct: N-terminally FLAG-tagged PARP2 (amino acids 1-583)
- assay-overview: PARP2 probe displacement HTRF assay
- Type: binding
- measurement-parameters: binned Kd, PARP2 probe displacement HTRF
pKd: −log10 of the molar value.
result-type: pKd

Memo: CNC(=O)c1ccc(N2CCC(N3CCC(c4nc5c(Cl)cccc5c(=O)[nH]4)C3)CC2)cn1 (single isomer, unassigned) [Compound 52a] , reported pKd: 6.00 to 7.00

Value of measured pKd for the entry CCc1ccc(C2CCN(C3CCN(c4ccc(C(=O)NC)nc4C)CC3)C2)[nH]c1=O (single isomer, unassigned) [Compound 133a] : 5.00 to 6.00

Looking up CCc1ccc(C2CCN(C3CCN(c4ccc(C(=O)NC)nc4)CC3)C2)[nH]c1=O (single isomer, unassigned) [Compound 72a] , I found its pKd recorded as 5.00 to 6.00

pKd reading for CNC(=O)c1ccc(N2CCC(N3CCCC(c4nc5cc(F)ccc5c(=O)[nH]4)C3)CC2)cn1 (single isomer, unassigned) [Compound 108b] : < 5.00

pKd reading for O=C(NCCF)c1ccc(N2CCC(N3CCC(c4nc5ccccc5c(=O)[nH]4)C3)CC2)cn1 (single isomer, unassigned) [Compound 117b] : 6.00 to 7.00

# compound CNC(=O)c1ccc(N2CCC(N3CCC(c4ccc(C5CC5)c(=O)[nH]4)C3)CC2)cn1 (racemic) ; its pKd = 5.00 to 6.00

* * *

Measured Kd, listed per entry.
- test-system: N-terminally FLAG-tagged PARP2 (amino acids 1-583) (Homo sapiens, UniProt Q9UGN5)
- Construct: N-terminally FLAG-tagged PARP2 (amino acids 1-583)
- assay-overview: PARP2 probe displacement HTRF assay
- Format: binding
- measurement-parameters: binned Kd, probe displacement HTRF

Worked examples follow.
compound	Kd
O=c1[nH]c(C2CCN(C3CCN(c4nc5ccccc5[nH]4)CC3)C2)cc2ccccc12 (racemic) [Compound 297rac]	100 to 1000 nM
CNC(=O)c1ccc(N2CCC(N3CCC(c4cnc(C(F)(F)F)c(=O)[nH]4)C3)CC2)cn1 (single isomer, unassigned) [Compound 279b]	> 10000 nM

// next entry
Data point: CC(=O)Nc1ccc(N2CCC(N3CCC(c4cc5ccccc5c(=O)[nH]4)C3)CC2)c(Cl)c1 (single isomer, unassigned) [Compound 273a] ; Kd = 1000 to 10000 nM
